The measured values listed here are drawn from ChEMBL document CHEMBL3991601.

- experimental.target: Delta(24)-sterol reductase (Homo sapiens, UniProt Q15392); note: in the data inactive means no Kd found up to 30 µM
- Sequence (Q15392 whole entry): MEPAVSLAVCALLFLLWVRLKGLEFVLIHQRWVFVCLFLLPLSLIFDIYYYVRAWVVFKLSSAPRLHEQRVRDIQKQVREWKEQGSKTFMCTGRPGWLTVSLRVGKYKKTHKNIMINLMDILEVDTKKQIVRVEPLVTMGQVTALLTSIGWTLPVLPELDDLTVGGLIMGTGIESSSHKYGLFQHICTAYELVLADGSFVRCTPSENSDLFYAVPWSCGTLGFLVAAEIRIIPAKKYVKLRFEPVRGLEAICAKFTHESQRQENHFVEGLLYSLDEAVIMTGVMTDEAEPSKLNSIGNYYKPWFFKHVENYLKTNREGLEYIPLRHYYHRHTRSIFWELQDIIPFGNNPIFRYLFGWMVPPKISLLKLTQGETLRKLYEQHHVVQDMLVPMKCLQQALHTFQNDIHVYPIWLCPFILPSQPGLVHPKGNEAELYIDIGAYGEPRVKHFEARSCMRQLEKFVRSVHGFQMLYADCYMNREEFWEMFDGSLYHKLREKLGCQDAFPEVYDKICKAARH
The source made the active and inactive calls.
Write down one outcome, taken from active, inactive

CCN1CCN(Cc2ccc(Nc3ncc(F)c(-c4cc(F)c5nc(C)n(C(C)C)c5c4)n3)nc2)CC1 :: inactive
O=S(=O)(c1cccc2c(O)nccc12)N1CCCNCC1 [HYDROXYFASUDIL] :: inactive
CCN(CCCOc1ccc2c(Nc3cc(CC(=O)Nc4cccc(F)c4)n[nH]3)ncnc2c1)CCOP(=O)(O)O :: inactive
N#CCNC(=O)c1ccc(-c2ccnc(Nc3ccc(N4CCOCC4)cc3)n2)cc1 :: inactive
CNC(=O)c1cccc(-c2ccc3c(N4CCOC[C@@H]4C)nc(N4CCOC[C@@H]4C)nc3n2)c1 :: inactive

Req: Short answer needed: outcome of this test for CC1(COc2ccc3c(c2)ncn3-c2ccc3cccc(N4CCC(N)CC4)c3n2)COC1 ?
Resp: inactive

Req: Please let me know the test result on file for C#Cc1cccc(Nc2ncnc3cc4c(cc23)OCCOCCOCCO4)c1 .
Resp: inactive

Req: For COCCN1CCN(Cc2ccc(-c3n[nH]c4c3C(=O)c3c(NC(=O)NN5CCOCC5)cccc3-4)cc2)CC1 , what call appears in the results of this test?
Resp: inactive

Req: For CCc1nc(C(N)=O)c(Nc2ccc(N3CCC(N4CCN(C)CC4)CC3)c(OC)c2)nc1NC1CCOCC1 , what call appears in the results of this test?
Resp: active

Req: Could you check what this test reported for Cc1cc(C(=O)Nc2cc(Oc3ccc4nc(NC(=O)C5CC5)cn4n3)ccc2C)n(C)n1 ?
Resp: inactive

----------
- experimental.target: Eukaryotic translation initiation factor 2-alpha kinase 1 (Homo sapiens, UniProt Q9BQI3); note: in the data inactive means no Kd found up to 30 µM
- Sequence (Q9BQI3 whole entry): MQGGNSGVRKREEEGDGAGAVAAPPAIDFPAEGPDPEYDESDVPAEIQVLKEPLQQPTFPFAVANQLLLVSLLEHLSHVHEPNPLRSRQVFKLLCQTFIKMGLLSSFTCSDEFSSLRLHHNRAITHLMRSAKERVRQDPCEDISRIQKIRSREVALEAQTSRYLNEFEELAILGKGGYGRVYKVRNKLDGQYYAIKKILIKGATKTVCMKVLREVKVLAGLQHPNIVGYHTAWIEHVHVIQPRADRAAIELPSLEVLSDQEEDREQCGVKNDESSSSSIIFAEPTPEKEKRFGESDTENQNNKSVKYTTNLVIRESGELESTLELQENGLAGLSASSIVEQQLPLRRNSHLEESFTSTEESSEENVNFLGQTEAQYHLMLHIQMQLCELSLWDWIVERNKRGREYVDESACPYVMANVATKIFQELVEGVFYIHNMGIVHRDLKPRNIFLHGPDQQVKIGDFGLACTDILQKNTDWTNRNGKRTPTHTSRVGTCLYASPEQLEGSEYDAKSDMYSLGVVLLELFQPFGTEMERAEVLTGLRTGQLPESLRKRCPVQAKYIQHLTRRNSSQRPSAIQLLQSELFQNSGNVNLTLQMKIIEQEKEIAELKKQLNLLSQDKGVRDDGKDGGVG
Calls of active or inactive are those of the source.
Answer with one of the outcomes TRUE for active, FALSE for inactive

Here's what some known entries look like.
CNC(=O)c1cccc(-c2ccc3c(N4CCOC[C@@H]4C)nc(N4CCOC[C@@H]4C)nc3n2)c1 :: FALSE
C=CCn1c(=O)c2cnc(Nc3ccc(N4CCN(C)CC4)cc3)nc2n1-c1cccc(C(C)(C)O)n1 :: FALSE
COc1cccc(Nc2ncnn3ccc(CN4CC[C@@H](N)[C@H](O)C4)c23)c1 :: FALSE
Cc1cc(-c2cc(OC(=O)c3ccccc3)ccc2Cl)cc2nnc(Nc3ccc(OCCN4CCCC4)cc3)nc12 :: FALSE
Cc1cc(Nc2nc(N[C@@H](C)c3ncc(F)cn3)ncc2Cl)n[nH]1 :: FALSE

Req: Just curious, what result did Cc1c(NC(=O)OC[C@@H]2COCCN2)cn2ncnc(Nc3ccc4c(cnn4Cc4cccc(F)c4)c3)c12 get here?
Resp: FALSE

Req: Test call, this compound: C=CC(=O)Nc1cccc(Nc2nc(Nc3ccc(N4CCN(C(C)=O)CC4)cc3OC)ncc2C(F)(F)F)c1
Resp: FALSE

Req: What did this assay record as the result for FC(F)(F)c1ccc(CNc2ccc(Cc3c[nH]c4ncc(Cl)cc34)cn2)cn1 ?
Resp: FALSE

----------
- experimental.target: Casein kinase I isoform gamma-1 (Homo sapiens, UniProt Q9HCP0); note: in the data inactive means no Kd found up to 30 µM
- Sequence (Q9HCP0 whole entry, canonical isoform): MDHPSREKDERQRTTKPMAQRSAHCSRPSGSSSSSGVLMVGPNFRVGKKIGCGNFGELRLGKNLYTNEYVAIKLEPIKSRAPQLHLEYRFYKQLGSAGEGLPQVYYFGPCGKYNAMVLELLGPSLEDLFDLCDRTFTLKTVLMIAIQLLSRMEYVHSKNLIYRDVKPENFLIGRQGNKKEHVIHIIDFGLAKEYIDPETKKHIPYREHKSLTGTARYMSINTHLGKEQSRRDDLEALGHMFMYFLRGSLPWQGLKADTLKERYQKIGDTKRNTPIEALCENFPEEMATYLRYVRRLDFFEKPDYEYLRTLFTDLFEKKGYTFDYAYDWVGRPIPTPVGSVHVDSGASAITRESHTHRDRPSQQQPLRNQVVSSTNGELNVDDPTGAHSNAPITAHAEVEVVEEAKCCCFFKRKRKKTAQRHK
Activity calls are given as the source filed them.
Tick one outcome: t for active, f for inactive

Below are worked cases with known answers.
CNC(=O)c1cc(COc2nnc(Nc3ccc(Cl)cc3)c3ccoc23)ccn1 [TELATINIB] :: f
Cc1cc(C(=O)Nc2cc(Oc3ccc4nc(NC(=O)C5CC5)cn4n3)ccc2C)n(C)n1 [TAK-593] :: f
COc1cc(Nc2ncc(F)c(Nc3ccc4c(n3)N(COP(=O)(O)O)C(=O)C(C)(C)O4)n2)cc(OC)c1OC [FOSTAMATINIB] :: f
C#Cc1cccc(Nc2ncnc3cc4c(cc23)OCCOCCOCCO4)c1 [ICOTINIB] :: f
C=CC(=O)Nc1cc(Nc2nccc(-c3cn(C)c4ccccc34)n2)c(OC)cc1N(C)CCN(C)C [OSIMERTINIB] :: f
CC[C@@](C)(Nc1ccnc(-c2c[nH]c3ncccc23)n1)C(=O)NCC(F)(F)F [DECERNOTINIB] :: f
c1cc(OCCN2CCCCC2)cc(-c2n[nH]c3ccc(-c4nc[nH]n4)cc23)c1 [CC-401] :: t

Okay, next one:
Req: Returns: the outcome recorded for COc1cccc(Nc2ncnn3ccc(CN4CC[C@@H](N)[C@H](O)C4)c23)c1 [BMS-690514] in this assay.
Resp: f
